// provenance: paper PMC11324870

# test system: BCAT1 (branched-chain amino acid transaminase 1) (Homo sapiens, UniProt P54687)
# Construct: recombinant human BCAT1 Protein (Sino Biological, #ME16FE2265)
# Sequence (P54687 whole entry): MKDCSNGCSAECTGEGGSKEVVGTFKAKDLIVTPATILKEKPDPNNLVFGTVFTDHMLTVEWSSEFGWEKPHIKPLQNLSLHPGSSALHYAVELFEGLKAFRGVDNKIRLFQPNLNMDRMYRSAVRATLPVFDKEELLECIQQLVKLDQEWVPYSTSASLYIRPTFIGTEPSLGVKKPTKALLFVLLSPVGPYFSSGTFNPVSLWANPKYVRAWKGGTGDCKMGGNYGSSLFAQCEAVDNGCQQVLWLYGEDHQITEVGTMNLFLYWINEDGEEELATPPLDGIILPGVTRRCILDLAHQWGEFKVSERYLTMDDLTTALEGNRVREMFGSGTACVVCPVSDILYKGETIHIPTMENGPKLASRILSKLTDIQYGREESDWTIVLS
# assay text: coupled fluorescence (resazurin) enzyme activity assay with purified recombinant BCAT1; also CETSA in […] cells
property: pIC50
Answers are plain numbers, as −log10 of the molar value.

Fetch value of pIC50 on BCAT1 (branched-chain amino acid transaminase 1) (Homo sapiens, UniProt P54687) for NCC1(CC(=O)O)CC2CCC1C2 (racemic) [WQQ-345] .
1.97
